# measured-target: Transcriptional activator Myb (Homo sapiens)
# method-notes: ATG_Myb_CIS: Attagene CIS-FACTORIAL HepG2 Assay for human Myeloblastosis (Myb) Proto-Oncogene Transcription Factor (AID 2282986)
# run-parameters: HepG2 Attagene CIS-FACTORIAL Myb reporter transcription; actives raise or lower the signal
Activity calls are given as the source filed them. The calls were made as follows: active = hit-call score of the fitted dose curve at least 0.9, where 1 is the maximum; inactive = score below 0.9.
Would you mind answering with one of these outcomes? YES = active, NO = inactive

Consider the following illustrative entries.
Cc1ccc2oc(=O)ccc2c1: NO
OC1OCCOC1O (centres undefined): NO
CO[Si](OC)(OC)c1ccccc1: NO
O=C1CCCCCCCCCCC(=O)OCCO1: NO
CCOC(F)(F)C(F)(F)C(F)(F)C(F)(F)F: NO

Field: next compound
Query string: Assay result, entry C=C[Si](OC(C)=O)(OC(C)=O)OC(C)=O — outcome?
Result string: NO
